Cited source: patent US20240228562A1

Give measured kon for each item. Keep answers brief.
targetOrSystem: T1, recombinant human CTGF-Fc protein (Creative Biomart) (human)
T1 construct: Bought; also called human CTGF with a human IgG1 Fc Tag
T1 sequence (chain, as listed by the source limits assumed): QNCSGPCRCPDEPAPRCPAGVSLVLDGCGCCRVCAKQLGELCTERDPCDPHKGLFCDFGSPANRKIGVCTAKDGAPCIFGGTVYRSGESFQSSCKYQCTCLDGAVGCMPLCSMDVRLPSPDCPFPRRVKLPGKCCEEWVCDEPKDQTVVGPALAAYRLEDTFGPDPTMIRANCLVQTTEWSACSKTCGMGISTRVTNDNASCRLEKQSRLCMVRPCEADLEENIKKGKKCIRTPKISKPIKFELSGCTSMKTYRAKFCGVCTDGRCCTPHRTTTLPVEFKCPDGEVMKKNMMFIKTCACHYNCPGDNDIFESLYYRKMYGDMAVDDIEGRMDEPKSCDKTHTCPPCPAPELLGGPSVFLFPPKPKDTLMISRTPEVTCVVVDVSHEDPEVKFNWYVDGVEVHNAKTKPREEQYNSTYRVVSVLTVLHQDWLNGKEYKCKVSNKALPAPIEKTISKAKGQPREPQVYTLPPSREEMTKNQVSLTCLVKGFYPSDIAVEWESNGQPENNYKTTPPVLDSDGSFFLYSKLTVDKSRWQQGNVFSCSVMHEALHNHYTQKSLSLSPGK
assayRemarks: SPR (Biacore)
Experimental: The binding of exemplary lipocalin muteins to human (Creative Biomart), cynomolgus, rat (R&D Systems) and mouse CTGF (Abbexa) was determined by SPR using a Biacore instrument (Cytiva, formerly GE Healthcare). Some targets were fused to a human IgG1 Fc tag, and captured via the anti-human IgG antibody kit, others were directly immobilized. For some measurements, human CTGF with a human IgG1 Fc Tag or rat or murine CTGF without a tag were directly immobilized to a CM5 Chip. […]
Reply numerically in M⁻¹ s⁻¹, unit not repeated.

For record lipocalin mutein of SEQ ID NO: 10 (designed binder, also called hNGAL mutein; not shown: C-terminal His-tag) QDSTSDLIPAPPLSKVPLQQNFQDNQFQGKWYVVGLAGNAILREDKQPAKMFATIYELKEDKSYDVTSVRFEAKSCSYTIKTFVPGSQPGEFTAGNIKSAPGQTSTLVRVVSTNYNQHAMVFWKSVAGTRESFNIALYGRTKELTSELKENFIRFSKSLGLPENHIVFPVPIDQCIDG the listed kon is 67700

For record lipocalin mutein of SEQ ID NO: 18 (designed binder, also called hNGAL mutein; not shown: C-terminal His-tag) QDSTSDLIPAPPLSKVPLQQNFQDNQFQGKWYVVGIAGNAILRDDKYPAKMFATIYELKEDKSYDVTSVRFENKSCIYTIKTFVPGSQPGEFTHGNIKSHPGQTSTLVRVVSTNYNQHAMVFFKHVSQNREIFVITLYGRTKELTSELKENFIRFSKSLGLPENHIVFPVPIDQCIDG the listed kon is 40900
